Molecular target: binding of His-XIAP(BIR2)-avi fusion protein to GST-RIPK2 fusion protein (RIPK2/XIAP) (Homo sapiens, UniProt O43353)
Construct: made in house; host or cells: baculovirus infected Sf9 cells
Sequence (O43353 1-310 limits assumed): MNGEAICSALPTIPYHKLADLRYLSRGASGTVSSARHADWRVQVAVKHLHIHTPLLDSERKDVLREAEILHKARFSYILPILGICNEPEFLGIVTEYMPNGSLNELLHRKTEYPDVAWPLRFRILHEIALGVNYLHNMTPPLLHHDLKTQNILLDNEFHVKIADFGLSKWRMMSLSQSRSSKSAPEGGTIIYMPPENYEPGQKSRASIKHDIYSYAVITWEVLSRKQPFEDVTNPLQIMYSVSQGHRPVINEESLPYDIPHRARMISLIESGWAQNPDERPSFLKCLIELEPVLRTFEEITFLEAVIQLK
Test: RIPK2-XIAP binding competition PPI assay (TR-FRET)
Settings: RIPK2/XIAP binding competition PPI assay; read-out: PPI IC50 bin
VALUE_TYPE: IC50

compound=COc1cc2ncc(-c3cc(N)nc(F)c3)n2cc1C(F)(F)F value_type=IC50 result="> 20 nM"
compound=CCCS(=O)(=O)Nc1cc(-c2cnn3cc(OC)c(S(=O)(=O)C(C)(C)CO)cc23)cc(F)c1OC value_type=IC50 result="< 1 nM"
compound=COc1cc2ncc(-c3cc(F)c(OC)c(NS(=O)(=O)c4cn[nH]c4)c3)n2cc1S(=O)(=O)C(C)(C)C value_type=IC50 result="< 1 nM"
compound=C[C@H](O)COc1cn2ncc(-c3cc(F)c(N)nc3F)c2cc1S(=O)(=O)C(C)(C)C value_type=IC50 result="1 to 2.5 nM"
compound=COc1cc2ncc(-c3cccc(NS(=O)(=O)C4(C)CC4)c3)n2cc1S(=O)(=O)C(C)(C)C value_type=IC50 result="2.5 to 20 nM"
compound=CC(C)(C)S(=O)(=O)c1cn2c(-c3cc(F)c(N)nc3F)cnc2cc1OCCO value_type=IC50 result="2.5 to 20 nM"
compound=COc1cc2ncc(-c3ccc4cnn(C)c4c3)n2cc1S(=O)(=O)C(C)(C)C value_type=IC50 result="> 20 nM"
compound="CC(F)(CO)COc1cc2ncc(-c3cc(F)c(N)nc3F)n2cc1S(=O)(=O)C(C)(C)C (single isomer, unassigned) [Example 260]" value_type=IC50 result="1 to 2.5 nM"
compound=Nc1cc(-c2cnc3ccc(C(F)(F)F)cn23)cc(F)n1 value_type=IC50 result="> 20 nM"
compound="CC(C)(C)S(=O)(=O)c1cc2c(-c3cc(Cl)c(N)nc3F)cnn2cc1OCC(O)CO (stereo not shown)" value_type=IC50 result="1 to 2.5 nM"
compound=COc1cc2ncc(-c3cc(F)c(OC)c(NC(=O)Cc4cnn(C)c4)c3)n2cc1S(=O)(=O)C(C)(C)C value_type=IC50 result="1 to 2.5 nM"
compound=CCCS(=O)(=O)Nc1cc(-c2cnc3cc(OC)c(S(=O)(=O)C(C)(C)CO)cn23)cc(F)c1OC value_type=IC50 result="< 1 nM"
compound=COc1cc2ncc(-c3ccc(N)nc3F)n2cc1S(=O)(=O)CCCO value_type=IC50 result="> 20 nM"
compound=COc1cc2nc(N)c(-c3cc(F)c(N)nc3F)n2cc1S(=O)(=O)C(C)(C)C value_type=IC50 result="> 20 nM"
compound="CC(CO)COc1cc2ncc(-c3cc(F)c(N)nc3F)n2cc1S(=O)(=O)C(C)(C)C (racemic)" value_type=IC50 result="1 to 2.5 nM"
compound=CC(C)(C)S(=O)(=O)c1cn2c(-c3cc(F)c(N)nc3F)cnc2cc1OCC1COC1 value_type=IC50 result="2.5 to 20 nM"

----------
Below, each of the molecules is paired with its reported pIC50 value.
Molecular target: binding of His-XIAP(BIR2)-avi fusion protein to GST-RIPK2 fusion protein (RIPK2/XIAP) (Homo sapiens)
Construct: made in house; host or cells: baculovirus infected Sf9 cells
Assay: RIPK2-XIAP binding competition PPI assay (TR-FRET)
Conditions: RIPK2/XIAP binding competition PPI assay; read-out: PPI IC50 bin
pIC50: −log10 of the molar value.
VALUE_TYPE: pIC50

smiles_notation=CC(C)(C)S(=O)(=O)c1cn2c(-c3ccc(N)nc3F)cnc2cc1OCCO result="< 7.70"
smiles_notation=CCS(=O)(=O)Nc1cc(-c2cnc3cc(OC)c(S(=O)(=O)C(C)(C)CO)cn23)cc(Cl)c1OC result="8.60 to 9.00"
smiles_notation=COCCN1CCC(C)(S(=O)(=O)c2cn3c(-c4cc(F)c(N)nc4F)cnc3cc2OC)CC1 result="7.70 to 8.60"
smiles_notation=CC(C)(CO)COc1cc2ncc(-c3cc(F)c(N)nc3F)n2cc1S(=O)(=O)C(C)(C)C result="8.60 to 9.00"
smiles_notation=COc1cc2ncc(-c3cc(F)c(OC)c(NS(=O)(=O)c4cnn(CCO)c4)c3)n2cc1S(=O)(=O)C(C)(C)C result="> 9.00"
smiles_notation=COc1cc2ncc(-c3cc(F)c(N)nc3F)n2cc1S(=O)(=O)C(C)(C)CO result="7.70 to 8.60"
smiles_notation=[2H]C([2H])([2H])Oc1c(F)cc(-c2cnc3cc(OC)c(S(=O)(=O)C(C)(C)C)cn23)cc1NS(=O)(=O)CC1COC1 result="> 9.00"

----------
Target: binding of His-XIAP(BIR2)-avi fusion protein to GST-RIPK2 fusion protein (RIPK2/XIAP) (Homo sapiens)
Construct: made in house; host or cells: baculovirus infected Sf9 cells
Experiment: RIPK2-XIAP binding competition PPI assay (TR-FRET)
Settings: RIPK2/XIAP binding competition PPI assay; read-out: PPI IC50 bin
Description: The ability of selected compounds of Formula (I) to inhibit the binding of an His-XIAP(BIR2)-avi fusion protein to a GST-RIPK2 fusion protein was quantified employing the TR-FRET-based competition assay as described in the following paragraphs. […]
pIC50: −log10 of the molar value.
pIC50 for assorted compounds
VALUE_TYPE: pIC50

compound=COc1cc2ncc(-c3ccc4cncn4c3)n2cc1S(=O)(=O)C(C)(C)C value_type=pIC50 result="< 7.70"
compound="CC(F)(CO)COc1cc2ncc(-c3cc(Cl)c(N)nc3F)n2cc1S(=O)(=O)C(C)(C)C (single isomer, unassigned) [Example 265]" value_type=pIC50 result="8.60 to 9.00"
compound=COc1cc2ncc(-c3cnc4c(c3)CCCN4)n2cc1S(=O)(=O)C(C)(C)C value_type=pIC50 result="< 7.70"
compound=COc1cc2ncc(-c3cc(F)c(OC)c(NS(=O)(=O)c4cn(C)nc4C)c3)n2cc1S(=O)(=O)C(C)(C)C value_type=pIC50 result="> 9.00"
compound=COc1cc2ncc(-c3cnc4c(c3)NCCO4)n2cc1S(=O)(=O)C(C)(C)C value_type=pIC50 result="< 7.70"
compound=C[C@H](O)CCOc1cc2ncc(-c3cc(F)c(N)nc3F)n2cc1S(=O)(=O)C(C)(C)C value_type=pIC50 result="7.70 to 8.60"
compound=Cc1nc(N)c(F)cc1-c1cnc2cc(OCCO)c(S(=O)(=O)C(C)(C)C)cn12 value_type=pIC50 result="< 7.70"
compound=CC(C)(C)S(=O)(=O)c1cn2c(-c3ccc4[nH]ccc4c3)cnc2cc1OCCO value_type=pIC50 result="> 9.00"
compound="COc1cc2ncc(-c3cccc(NS(=O)(=O)C4CCN(C(=O)OC(C)(C)C)C4)c3)n2cc1S(=O)(=O)C(C)(C)C (stereo not shown)" value_type=pIC50 result="< 7.70"
compound=COc1cc2ncc(-c3cc(F)nc(NCCCO)c3)n2cc1C(F)(F)F value_type=pIC50 result="< 7.70"
compound=COc1c(F)cc(-c2cnc3cc(OC[C@H](C)O)c(S(=O)(=O)C(C)(C)C)cn23)cc1NS(=O)(=O)c1cnn(C)c1 value_type=pIC50 result="> 9.00"
compound=COc1cc2ncc(-c3cc(F)c(OC)c(NS(=O)(=O)c4c(C)nn(C)c4C)c3)n2cc1S(=O)(=O)C(C)(C)C value_type=pIC50 result="< 7.70"
compound=CC1(COc2cc3ncc(-c4cc(F)c(N)nc4F)n3cc2S(=O)(=O)C(C)(C)C)COC1 value_type=pIC50 result="7.70 to 8.60"
compound=COc1cc2ncc(-c3cccc(NS(=O)(=O)CC4CC4)c3)n2cc1S(=O)(=O)C(C)(C)C value_type=pIC50 result="8.60 to 9.00"
compound="CC(F)(CO)COc1cc2ncc(-c3cc(F)c(N)nc3F)n2cc1S(=O)(=O)C(C)(C)C (stereo not shown) [Example 204]" value_type=pIC50 result="8.60 to 9.00"
compound=COc1cc2ncc(-c3cccc(NS(=O)(=O)C4CC4)c3)n2cc1S(=O)(=O)C(C)(C)C value_type=pIC50 result="7.70 to 8.60"

----------
Target: binding of His-XIAP(BIR2)-avi fusion protein to GST-RIPK2 fusion protein (RIPK2/XIAP) (Homo sapiens, UniProt O43353)
Construct: made in house; host or cells: baculovirus infected Sf9 cells
Experiment: RIPK2-XIAP binding competition PPI assay (TR-FRET)
Settings: RIPK2/XIAP binding competition PPI assay; read-out: PPI IC50 bin
pIC50: −log10 of the molar value.
VALUE_TYPE: pIC50

molecule=C[C@@H](CO)COc1cc2ncc(-c3cc(F)c(N)nc3F)n2cc1S(=O)(=O)C(C)(C)C result="8.60 to 9.00"
molecule=COc1cc2ncc(-c3cnc4c(c3)OCCN4)n2cc1S(=O)(=O)C(C)(C)C result="< 7.70"
molecule=COc1cc2ncc(-c3ccc4nc(N)sc4c3)n2cc1S(=O)(=O)C(C)(C)C result="< 7.70"
molecule="CC(C)(C)C(C)(O)c1cn2c(-c3cc(F)c(N)nc3F)cnc2cc1OCCO (single isomer, unassigned) [Example 295]" result="7.70 to 8.60"
molecule=COc1ccc(-c2cnc3cc(OC)c(S(=O)(=O)C(C)(C)C)cn23)cc1NS(=O)(=O)c1cnn(C)c1 result="> 9.00"
molecule=COc1cc2ncc(-c3cc(F)c(OC)c(NS(=O)(=O)c4ccn(C)n4)c3)n2cc1S(=O)(=O)C(C)(C)C result="> 9.00"
molecule=COc1cc2ncc(-c3cccc(NS(=O)(=O)C4CCC4)c3)n2cc1S(=O)(=O)C(C)(C)C result="7.70 to 8.60"
molecule=COc1cc2ncc(-c3cccc(NS(=O)(=O)C4COC4)c3)n2cc1S(=O)(=O)C(C)(C)C result="7.70 to 8.60"
molecule=COc1cc2ncc(-c3cc(F)c(OC)c(NS(=O)(=O)c4cc(C)no4)c3)n2cc1S(=O)(=O)C(C)(C)C result="< 7.70"
molecule=C=CS(=O)(=O)Nc1cc(-c2cnc3cc(OC)c(S(=O)(=O)C(C)(C)C)cn23)cc(OC)c1OC result="> 9.00"
molecule=CC(C)(C)S(=O)(=O)c1cn2c(-c3cc4c(F)c[nH]c4nc3F)cnc2cc1OCCO result="> 9.00"
molecule=COc1cc2ncc(-c3cc(F)c(N)nc3F)n2cc1S(=O)(=O)C1(C)CC1 result="< 7.70"
molecule=C[C@H](CO)Oc1cc2ncc(-c3cc(Cl)c(N)nc3F)n2cc1S(=O)(=O)C(C)(C)C result="7.70 to 8.60"
molecule=CCS(=O)(=O)Nc1cc(-c2cnc3cc(OC)c(C(=O)N4CCOCC4)cn23)cc(F)c1OC result="< 7.70"
molecule=CCOc1cc2ncc(-c3cc(F)c(OC)c(NS(=O)(=O)c4cnn(C)c4)c3)n2cc1S(=O)(=O)C(C)C result="> 9.00"
